B1: SLC6A17 (parent)
chain: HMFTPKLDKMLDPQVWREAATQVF

variants of: B1; experiment: protein stability index of a GFP-peptide fusion (GPS, HEK-293T) (PSI 1-6); higher = more stable; details: c terminus: a fixed tail appended;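 note: lentivirally expressed fusions sorted by FACS into six bins by GFP to DsRed ratio, PSI derived from sequencing read proportions per bin multiplied by bin number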
Hi there, I'd appreciate the recorded protein stability index for every entry that follows.
Reply briefly: the number, and no unit.

Need protein stability index of D12A , thanks.
1.98

// query: E18A
2.04

// query: P13H
1.54

// query: A19D
2.21

// query: L7D
2.55

// query: Q22I
1.45

// query: E18F
1.85

// query: L11D
1.87

// query: R17I
2.08

// query: H1R
1.98

// query: K6C
1.98

// query: V15L
2.37

// query: K9R
2.42

// query: A19M
1.5

// query: Q22C
1.81

// query: L11P
2.16

// query: F24A
2.29

// query: P5G
1.61

// query: L7N
1.99

// query: W16E
3.76

// query: P5I
3.2

// query: M10F
2.59

// query: W16A
2.47

// query: H1E
2.17

// query: P5K
1.69

// query: F3R
2.4

// query: R17F
1.27

// query: Q14L
2.14

// query: K9I
1.66

// query: F3E
3.49

// query: W16T
3.05

// query: A19F
2.03

// query: T4S
2.67

// query: H1T
1.46

// query: V15H
2.34

// query: E18R
3.18

// query: M10G
2.15

// query: T21Q
1.28

// query: T4K
1.67

// query: L11V
1.87

// query: A20R
1.87

// query: L7T
2.27

// query: R17A
1.36

// query: K9E
1.58

// query: Q22N
2.5

// query: H1M
2.74

// query: K6T
1.74

// query: A20N
1.94

// query: F3M
1.81

// query: V15E
2.84

// query: R17Y
1.18

// query: D12G
1.3

// query: D12K
1.63

// query: M2N
2.43

// query: H1F
2.13

// query: F3Y
2.6

// query: L11K
2.24

// query: D8Y
2

// query: T4N
1.39

// query: H1D
2.3

// query: F3A
2.2

// query: A20F
1.43

// query: F24Y
1.88
